# pEC50 values compiled below
biological target: TLR2 (Mus musculus); construct: endogenous in cells; experiment: TLR2 functional assay, cytokine release from RAW 264.7 mouse macrophage cell line; conditions: average of all runs
Sequence (Q9QUN7 25-784): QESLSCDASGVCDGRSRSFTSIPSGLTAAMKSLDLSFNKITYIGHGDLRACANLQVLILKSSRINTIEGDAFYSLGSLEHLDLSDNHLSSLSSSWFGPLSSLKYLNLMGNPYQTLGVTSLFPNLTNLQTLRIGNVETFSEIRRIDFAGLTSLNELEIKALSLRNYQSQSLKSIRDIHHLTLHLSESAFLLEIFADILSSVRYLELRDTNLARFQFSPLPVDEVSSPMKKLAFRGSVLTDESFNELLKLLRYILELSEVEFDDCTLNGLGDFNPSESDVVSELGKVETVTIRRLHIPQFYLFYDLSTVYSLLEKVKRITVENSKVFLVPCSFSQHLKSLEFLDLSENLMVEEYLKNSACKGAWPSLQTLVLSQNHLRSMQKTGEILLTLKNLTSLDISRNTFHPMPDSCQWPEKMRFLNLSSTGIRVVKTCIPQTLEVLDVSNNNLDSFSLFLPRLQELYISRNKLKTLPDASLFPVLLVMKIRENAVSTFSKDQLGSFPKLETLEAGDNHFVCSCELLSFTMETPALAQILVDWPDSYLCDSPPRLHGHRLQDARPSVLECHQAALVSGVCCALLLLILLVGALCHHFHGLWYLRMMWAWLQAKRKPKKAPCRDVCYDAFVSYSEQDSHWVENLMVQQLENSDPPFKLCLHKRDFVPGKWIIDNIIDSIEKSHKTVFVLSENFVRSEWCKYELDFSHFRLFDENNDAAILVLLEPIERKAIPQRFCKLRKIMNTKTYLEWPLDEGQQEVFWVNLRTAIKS
pEC50: −log10 of the molar value.

Take a look at these entries with their results.
INSERT INTO assay_data (compound, measure_name, result) VALUES
  ('CCCCCCCCCCCCCCC(=O)N[C@@H]1CN(C(=O)c2ccc(C(=O)N3C[C@@H](C(=O)N[C@H]4C[C@@H]4c4ccccc4)[C@H](C(=O)N[C@H]4C[C@@H]4c4ccccc4)C3)cc2)C[C@@H]1OC [Compound 209]', 'pEC50', '< 6.00'),
  ('CCCCCCCCCCCCCCC(=O)N[C@@H]1CCCN(C(=O)c2ccc(C(=O)N3C[C@@H](C(=O)N[C@H]4C[C@@H]4c4ccccc4)[C@H](C(=O)N[C@H]4C[C@@H]4c4ccccc4)C3)cc2)C1 [Compound 152]', 'pEC50', '< 6.00'),
  ('CCCCCCCCCCCOC(=O)N[C@H]1CN(C(=O)c2ccc(C(=O)N3C[C@@H](C(=O)N[C@H]4C[C@@H]4c4ccccc4)[C@H](C(=O)N[C@H]4C[C@@H]4c4ccccc4)C3)cc2)C[C@@H]1OC [Compound 215]', 'pEC50', '< 6.00'),
  ('CCCCCCCCCC(=O)N[C@@H](CNC(=O)c1ccc(C(=O)N2C[C@@H](C(=O)N[C@H]3C[C@@H]3c3ccccc3)[C@H](C(=O)N[C@H]3C[C@@H]3c3ccccc3)C2)cc1)C(=O)NCCCCCC [Compound 175]', 'pEC50', '6.46 to 7.29');

Now take the following compound into account.
Quick one: pEC50 of CCCCCCCCCCCCCOC(=O)N[C@H]1CN(C(=O)c2ccc(C(=O)N3C[C@@H](C(=O)N[C@H]4C[C@@H]4c4ccccc4)[C@H](C(=O)N[C@H]4C[C@@H]4c4ccccc4)C3)cc2)C[C@@H]1OC [Compound 217] ?
< 6.00

###

# EC50 values compiled below
target: TLR2 (Homo sapiens); assay: TLR2 agonist screening assay, HEK-Blue TLR2 reporter cell line (NF-kB-driven SEAP, absorbance at 600 nm); format: cell-based; set-up: host or cells: HEK-293 (HEK-Blue TLR2 reporter cell line); conditions: HEK-Blue TLR2 reporter cells, agonist mode; average of all runs (Table 4)
Sequence (O60603 21-784): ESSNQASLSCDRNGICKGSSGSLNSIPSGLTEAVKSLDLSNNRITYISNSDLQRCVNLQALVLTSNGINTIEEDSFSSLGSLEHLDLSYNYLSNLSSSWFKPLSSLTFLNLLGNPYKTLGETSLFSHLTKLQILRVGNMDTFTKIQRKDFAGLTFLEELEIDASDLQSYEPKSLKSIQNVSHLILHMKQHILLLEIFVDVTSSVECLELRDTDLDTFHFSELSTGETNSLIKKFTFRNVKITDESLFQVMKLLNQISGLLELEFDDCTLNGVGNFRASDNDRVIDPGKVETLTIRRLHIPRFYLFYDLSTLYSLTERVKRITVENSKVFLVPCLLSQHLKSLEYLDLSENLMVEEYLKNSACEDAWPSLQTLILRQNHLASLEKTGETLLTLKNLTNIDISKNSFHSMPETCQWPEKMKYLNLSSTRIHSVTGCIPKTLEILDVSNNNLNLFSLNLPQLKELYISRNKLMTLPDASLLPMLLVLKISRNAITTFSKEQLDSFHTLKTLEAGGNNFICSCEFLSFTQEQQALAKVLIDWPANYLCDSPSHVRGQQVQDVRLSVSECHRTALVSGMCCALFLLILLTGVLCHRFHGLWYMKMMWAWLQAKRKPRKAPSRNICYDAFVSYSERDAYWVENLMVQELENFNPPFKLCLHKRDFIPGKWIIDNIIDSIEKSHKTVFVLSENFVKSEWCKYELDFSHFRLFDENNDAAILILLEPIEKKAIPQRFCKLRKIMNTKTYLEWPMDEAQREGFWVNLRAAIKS

Take a look at these entries with their results.
INSERT INTO measurements (compound, target_of_assay, result) VALUES
  ('CCCCCCCC(=O)N1CCCN(C(=O)c2cccc(C(=O)N3C[C@@H](C(=O)N[C@H]4C[C@@H]4c4ccccc4)[C@H](C(=O)N[C@H]4C[C@@H]4c4ccccc4)C3)c2)C[C@@H]1C(=O)NCCCCCC (single isomer, unassigned) [Compound 191]', 'TLR2 (Homo sapiens)', '0.351 to 1 µM'),
  ('CCCCCCCCCC(=O)N[C@@H](CN1Cc2cc(C(=O)N3C[C@@H](C(=O)N[C@H]4C[C@@H]4c4ccccc4)[C@H](C(=O)N[C@H]4C[C@@H]4c4ccccc4)C3)ccc2C1=O)C(=O)NCCCCCC [Compound 242]', 'TLR2 (Homo sapiens)', '0.051 to 0.35 µM'),
  ('CCCCCCCC(=O)N1CCN(Cc2ccc(C(=O)N3C[C@@H](C(=O)N[C@H]4C[C@@H]4c4ccccc4)[C@H](C(=O)N[C@H]4C[C@@H]4c4ccccc4)C3)cc2)C[C@H]1C(=O)NCCCCCC [Compound 122]', 'TLR2 (Homo sapiens)', '> 1 µM');

Quick one: EC50 of CCCCCCCNC(=O)N[C@@H](CNC(=O)c1ccc(C(=O)N2C[C@@H](C(=O)N[C@H]3C[C@@H]3c3ccccc3)[C@H](C(=O)N[C@H]3C[C@@H]3c3ccccc3)C2)cc1)C(=O)NCCCCCC [Compound 181] ?
0.0001 to 0.05 µM
